pIC50: −log10 of the molar value.
Recorded pIC50 for compounds tested on ALK tyrosine kinase receptor (Homo sapiens), drawn from a number of studies.

[
  {
    "COMPOUND": "CN1CCN(c2ccc(C(=O)Nc3n[nH]c4c3CN(C(=O)[C@H](O)c3ccccc3)C4)cc2)CC1",
    "OPERATOR_SYMBOL": "=",
    "pIC50": 7.04
  },
  {
    "COMPOUND": "CNC(=O)c1ccccc1Nc1nc(Nc2ccc3c(c2)C(C)CN(C)CC3)nc2cccnc12 (stereo not given)",
    "OPERATOR_SYMBOL": "<",
    "pIC50": 6.00
  },
  {
    "COMPOUND": "Cc1n[nH]c2ccc(-c3cc(N[C@@H](CO)c4ccccc4)cnc3Cl)cc12",
    "OPERATOR_SYMBOL": "<",
    "pIC50": 6.00
  },
  {
    "COMPOUND": "COc1cc(N2CCC(N3CCN(C)CC3)CC2)ccc1Nc1ncc(Cl)c(Nc2ccccc2OC)n1",
    "OPERATOR_SYMBOL": "=",
    "pIC50": 8.73
  },
  {
    "COMPOUND": "CCN(CC)CCOc1ccc2c(c1)C(C)(C)c1oc3cc(C(F)(F)F)ccc3c1C2=O",
    "OPERATOR_SYMBOL": "=",
    "pIC50": 5.46
  }
]

---

pIC50: −log10 of the molar value.
Let's look at some pIC50 data for ALK tyrosine kinase receptor (Homo sapiens) that I collected from the literature.
READOUT_NAME: pIC50

[
  {
    "ENTRY_SMILES": "CN1CCN(c2ccc(C(=O)Nc3n[nH]c4ccc(Cc5ccccc5)cc34)c(NC3CCOCC3)c2)CC1",
    "OPERATOR_SYMBOL": "=",
    "NUMERIC_RESULT": 7.00
  },
  {
    "ENTRY_SMILES": "Cn1nc(C(N)=O)c2c1-c1nc(Nc3cc(N4CCNCC4)ccc3OC(F)(F)F)ncc1CC2",
    "OPERATOR_SYMBOL": "<",
    "NUMERIC_RESULT": 5.00
  },
  {
    "ENTRY_SMILES": "CC(C)S(=O)(=O)c1ccccc1Nc1nc(Nc2ncc(C(=O)N3C[C@H]4CN(C)C[C@H]4C3)s2)ncc1Cl",
    "OPERATOR_SYMBOL": "<",
    "NUMERIC_RESULT": 6.00
  },
  {
    "ENTRY_SMILES": "COc1cc(-n2cc(CN3C[C@@H](C)N[C@@H](C)C3)nn2)ccc1Nc1ncc(Cl)c(Nc2ccccc2S(=O)(=O)C(C)C)n1",
    "OPERATOR_SYMBOL": "=",
    "NUMERIC_RESULT": 8.52
  },
  {
    "ENTRY_SMILES": "[2H]C([2H])([2H])C([2H])([2H])Oc1cc(C2CCNCC2)c(C)cc1Nc1ncc(Cl)c(Nc2ccccc2S(=O)(=O)C(C)C)n1",
    "OPERATOR_SYMBOL": "=",
    "NUMERIC_RESULT": 6.97
  },
  {
    "ENTRY_SMILES": "COc1cc(N2CCC(O)CC2)ccc1Nc1ncc(Cl)c(Nc2ccsc2S(=O)(=O)C(C)C)n1",
    "OPERATOR_SYMBOL": ">",
    "NUMERIC_RESULT": 9.00
  },
  {
    "ENTRY_SMILES": "[2H]C([2H])([2H])Oc1cc(C2CCNCC2)c(C)cc1Nc1ncc(Cl)c(Nc2ccccc2S(=O)(=O)C(C)C)n1",
    "OPERATOR_SYMBOL": "=",
    "NUMERIC_RESULT": 7.15
  },
  {
    "ENTRY_SMILES": "CC(C)c1cc(C(=O)NCC(=O)Nc2ccc(F)c(Nc3ncc(Cl)c(Nc4ccccc4S(=O)(=O)C(C)C)n3)c2)c(O)cc1O",
    "OPERATOR_SYMBOL": "=",
    "NUMERIC_RESULT": 9.00
  },
  {
    "ENTRY_SMILES": "CC(C)c1n[nH]c(Cl)c1-c1ccnc(Nc2ccc(N3CCC(N(C)C)CC3)cn2)n1",
    "OPERATOR_SYMBOL": "<",
    "NUMERIC_RESULT": 5.00
  },
  {
    "ENTRY_SMILES": "Cn1cc(/C=C2\\C(=O)NN=C2c2cccs2)c2c(OCc3ccccc3)cccc21",
    "OPERATOR_SYMBOL": "=",
    "NUMERIC_RESULT": 6.98
  },
  {
    "ENTRY_SMILES": "Brc1ccc2[nH]c3c(c2c1)CCN(CC(c1ccccc1)c1ccccc1)c1nccc(I)c1-3",
    "OPERATOR_SYMBOL": "=",
    "NUMERIC_RESULT": 5.30
  },
  {
    "ENTRY_SMILES": "COc1cc2c(cc1Nc1ncc(Cl)c(Nc3ccccc3S(=O)(=O)C(C)C)n1)CC/C(=N\\N1CCOCC1)C2(C)C",
    "OPERATOR_SYMBOL": "=",
    "NUMERIC_RESULT": 7.40
  },
  {
    "ENTRY_SMILES": "CC(=O)/C=C/c1c(Oc2ccccc2Cl)nc[nH]c1=O",
    "OPERATOR_SYMBOL": "<",
    "NUMERIC_RESULT": 4.40
  },
  {
    "ENTRY_SMILES": "CCOC(=O)/C=C/c1c(Oc2c(OC)cccc2OC)nc[nH]c1=O",
    "OPERATOR_SYMBOL": "<",
    "NUMERIC_RESULT": 4.40
  },
  {
    "ENTRY_SMILES": "CC(C)S(=O)(=O)c1ccccc1Nc1nc(Nc2ccc(NC(=O)CCCCCCC(=O)NO)cc2)ncc1Cl",
    "OPERATOR_SYMBOL": "=",
    "NUMERIC_RESULT": 8.68
  },
  {
    "ENTRY_SMILES": "CC(=O)/C=C/c1c(Oc2ccc(C(C)(C)C)cc2)nc[nH]c1=O",
    "OPERATOR_SYMBOL": "<",
    "NUMERIC_RESULT": 4.40
  },
  {
    "ENTRY_SMILES": "CCCOc1ccc2c3c(oc2c1)C(C)(C)c1cc(OCCN(CC)CC)ccc1C3=O",
    "OPERATOR_SYMBOL": "=",
    "NUMERIC_RESULT": 5.61
  }
]
